assay: Human HepG2 cell viability assay in 384 well format; format: toxicity, cell-based; set-up: dose 125 nL, time 70.5 hour; concentration not given beside the values; settings: HepG2 cells, read-out: Inhibition
metric: cytotoxicity at 70.5 h (%)

compound: Cc1nc(CCC(=O)NCC(N)=O)cc(C2CCNCC2)n1
experimentalResult: -6.67
--
compound: CCc1nc(C2CCCN2C(=O)c2csc(NC(C)=O)n2)no1 (centres undefined)
experimentalResult: -1.48
--
compound: O=C(C1CCC2(CCN(CC3CCOCC3)CC2)O1)N1CCCCO1 (centres undefined)
experimentalResult: -5.73
--
compound: C[C@@H](CO)Nc1cc(-c2cn[nH]c2)ncn1
experimentalResult: -0.96
